# Subject Of Test: C-X-C chemokine receptor type 4 (Homo sapiens) (UniProt P61073)
# Sequence (P61073 whole entry): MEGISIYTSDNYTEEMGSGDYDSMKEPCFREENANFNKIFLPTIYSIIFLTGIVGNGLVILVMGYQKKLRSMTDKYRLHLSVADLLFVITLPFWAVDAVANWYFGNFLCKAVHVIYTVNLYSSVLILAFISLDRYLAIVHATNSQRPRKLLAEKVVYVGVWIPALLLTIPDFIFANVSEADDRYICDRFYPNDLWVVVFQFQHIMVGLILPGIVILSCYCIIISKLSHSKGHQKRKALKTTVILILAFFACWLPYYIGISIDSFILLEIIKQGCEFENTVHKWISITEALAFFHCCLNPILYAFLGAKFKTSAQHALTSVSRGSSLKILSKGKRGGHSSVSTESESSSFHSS
# Procedure Summary: Competitive binding affinity at CXCR4 in human MDA-MB-231 cells preincubated for 10 mins followed by biotinylated TN14003 addition further incubated for 30 mins by fluorescence microscopy
# Assay type: cell-based
Readout Label: EC (nM)
One number for each entry, in nM.

Sample answers from the record:
In [3]: df
Out[3]:
                            compound_string  readout_label  scale_unit  reported_result
0  O=C(NCc1ccc(CNS(=O)(=O)c2cccc3ccccc23)cc1)c1cccnc1             EC          nM             1000
1  Cc1ccccc1C(=O)NCc1ccc(CNS(=O)(=O)c2cccc3ccccc23)cc1             EC          nM              100
2  COc1ccccc1C(=O)NCc1ccc(CNS(=O)(=O)c2ccc([N+](=O)[O-])cc2)cc1             EC          nM              100
3  Cc1ccccc1C(=O)NCc1ccc(CNS(=O)(=O)c2ccccc2C)cc1             EC          nM               10
4  Cc1ccccc1C(=O)NCc1ccc(CNS(=O)(=O)c2cccc(F)c2)cc1             EC          nM              100

# return EC for each item in the list
1. O=C(NCc1ccc(CNS(=O)(=O)c2cccc(F)c2)cc1)c1cccnc1
2. O=C(NCc1ccc(CNS(=O)(=O)c2ccc(Cl)cc2)cc1)c1cccnc1
3. Cc1ccccc1C(=O)NCc1ccc(CNS(=O)(=O)c2ccc([N+](=O)[O-])cc2)cc1

Marked response:
[1000, 1000, 100]

# return EC for each item in the list
1. Cc1ccccc1C(=O)NCc1ccc(CNS(=O)(=O)c2ccccc2Cl)cc1
2. Cc1ccccc1S(=O)(=O)NCc1ccc(CNC(=O)c2cccnc2)cc1

Marked response:
1: 1000; 2: 1000

====

Answer each item with its documented EC.
# Subject Of Test: C-X-C chemokine receptor type 4 (Homo sapiens) (UniProt P61073)
# Procedure Summary: Competitive binding affinity at CXCR4 in human MDA-MB-231 cells preincubated for 10 mins followed by biotinylated TN14003 addition further incubated for 30 mins by fluorescence microscopy
# Assay type: cell-based
Answers are plain numbers, in nM.

                            compound_string  scale_unit  reported_result
0  Cc1ccccc1C(=O)NCc1ccc(CNS(=O)(=O)c2ccc(F)cc2)cc1          nM               10
1  COc1ccccc1C(=O)NCc1ccc(CNS(=O)(=O)c2ccc(Cl)cc2)cc1          nM             1000

# return EC for each item in the list
1. O=C(NCc1ccc(CNS(=O)(=O)c2ccccc2F)cc1)c1cccnc1
2. O=C(NCc1ccc(CNS(=O)(=O)c2cccc(Cl)c2)cc1)c1cccnc1
3. COc1ccccc1C(=O)NCc1ccc(CNS(=O)(=O)c2ccccc2C)cc1

Marked response:
1. 100
2. 100
3. 1000

====

# Subject Of Test: C-X-C chemokine receptor type 4 (Homo sapiens)
# Procedure Summary: Inhibition of CXCR4-mediated chemotaxis in human MDA-MB-231 cells assessed as reduction in CXCL12alpha-induced cell invasion after 22 hrs by hematoxylin/eosin dye-based matrigel assay relative to control
# Design: concentration or dose not given beside the values
# Conditions: concentration not given here
Readout Label: inhibition (%)
Numbers only, in %.

                            compound_string  readout_label  reported_result
0  O=C(NCc1ccc(CNS(=O)(=O)c2ccccc2Cl)cc1)c1cccnc1     inhibition               96
1  COc1ccccc1C(=O)NCc1ccc(CNS(=O)(=O)c2ccccc2Cl)cc1     inhibition               99
2  Cc1ccccc1C(=O)NCc1ccc(CNS(=O)(=O)c2cccc(Cl)c2)cc1     inhibition               99
3  O=C(NCc1ccc(CNS(=O)(=O)c2ccc(F)cc2)cc1)c1cccnc1     inhibition               92

For the next question, use this molecule.
Exam item: Hi! What's the reported inhibition for `Cc1ccccc1C(=O)NCc1ccc(CNS(=O)(=O)c2ccccc2C)cc1` on C-X-C chemokine receptor type 4 (Homo sapiens)?
Marked response: 99
